Condition description: 298.15 K; 101.33 kPa; Liquid; Vibrating tube method
Observable: molar volume (m3/mol)

CCCCCN
0.0001163
CCCN
8.315e-05
CCC(N)CC
0.0001172

P. CC(C)N
Q. CCCCCCCCCN
R. CCCCCCCCCCCCCCN
Exam item: list the entries in increasing order of molar volume. Reply: labels, ordered per the request. P, Q, R

###

Condition description: 298.15 K; 101.33 kPa; Liquid; Vibrating tube method
Observable: molar volume (m3/mol)

Example cases with answers are listed next.
CCCCCCC [heptane]
0.0001475
CCCCCCCN [1-heptanamine]
0.0001496
CCC(C)N (configuration not stated) [2-butanamine]
0.0001019
CCCCCCN [1-hexanamine]
0.0001331
CCCCCCCCCCN [1-decanamine]
0.000199
CCCCCCCCN [1-octanamine]
0.0001662

a. CC(C)(C)N [2-methyl-2-propanamine]
b. CCCCCCCCCCCCN [1-dodecanamine]
In terms of reported molar volume, does a or b have the smaller number? State the label of the item chosen. a
(a: 0.0001065 m3/mol, b: 0.0002323 m3/mol)

###

Condition description: 298.15 K; 101.33 kPa; Liquid; Vibrating tube method
Observable: molar volume (m3/mol)

CC(C)CN [2-methyl-1-propanamine]
0.000101
CC(C)CCN [3-methyl-1-butanamine]
0.000117
CCC(C)(C)N [1,1-dimethylpropylamine]
0.0001192
CCCCN [1-butanamine]
9.987e-05
